- Tested on: Trogoderma granarium
- assay: Antifeeding activity against Trogoderma granarium (khapra beetle) larvaes in compound treated wheat wafer disk assessed as total coefficient of deterrence by feeding deterrent activity test
- Format: functional
Property: FDI; scope: individual compounds

Qu. Return FDI measured with Trogoderma granarium given this compound: "COc1ccc2c(c1)OC(C)(C)C(CC(=O)O)=C2"
Ans. 108

Qu. Now this one: "COc1ccc2c(c1)OC(C)(C)C=C2"
Ans. 80.1

// below: FDI requested for another compound
Qu. Return FDI measured with Trogoderma granarium given this compound: "COc1ccc2c(c1)OC(C)(C)C1=C2OC(=O)C1"
Ans. 107.6

###

- System: Tribolium confusum
- assay: Antifeeding activity against Tribolium confusum (confused flour beetle) larvaes in compound treated wheat wafer disk assessed as absolute coefficient of deterrence by feeding deterrent activity test
- Type: functional
Property: FDI; scope: individual molecules
Could you respond with only the numeric value?

Qu. Data request, read-out FDI, for "COc1cc2c(cc1OC)OC(C)(C)C=C2"
Ans. 68.6

Further cases:
Qu. Data request, read-out FDI, for "COc1ccc2c(c1)OC(C)(C)C=C2"
Ans. 55.1

Qu. Now this one: "COc1cc2c(cc1OC)C1=C(CC(=O)O1)C(C)(C)O2"
Ans. 59

Qu. Now this one: COc1ccc2c(c1)OC(C)(C)[C@@]1(I)CC(=O)O[C@@H]21 (racemic)
Ans. 16.7

###

Property: FDI; scope: individual molecules
- System: Trogoderma granarium
- assay: Antifeeding activity against Trogoderma granarium (khapra beetle) larvaes in compound treated wheat wafer disk assessed as relative coefficient of deterrence by feeding deterrent activity test
- Assay type: functional
Could you respond with only the numeric value?

Solved entries (count: 5):
Qu. Data request, read-out FDI, for "COc1cc2c(cc1OC)OC(C)(C)C=C2"
Ans. 100

Qu. Now this one: "COc1cc2c(cc1OC)C1=C(CC(=O)O1)C(C)(C)O2"
Ans. 85

Qu. Now this one: "COc1ccc2c(c1)OC(C)(C)C1=C2OC(=O)C1"
Ans. 73.1

Qu. Now this one: COc1ccc2c(c1)OC(C)(C)[C@@]1(I)CC(=O)O[C@@H]21 (racemic)
Ans. 79.8

Qu. Now this one: "COc1ccc2c(c1)OC(C)(C)C=C2"
Ans. 38.3

Further cases:
Qu. Data request, read-out FDI, for COc1cc2c(cc1OC)[C@@H]1OC(=O)C[C@]1(I)C(C)(C)O2 (racemic)
Ans. 80.5

Qu. Now this one: "COc1ccc2c(c1)OC(C)(C)C(CC(=O)O)=C2"
Ans. 86

Qu. Now this one: "COc1cc2c(cc1OC)OC(C)(C)C(CC(=O)O)=C2"
Ans. 85.5

###

- System: Leptinotarsa decemlineata
- assay: Antifeeding activity against Leptinotarsa decemlineata adults in compound treated wheat wafer disk assessed as absolute coefficient of deterrence by feeding deterrent activity test
- Type: functional
The threshold is 30. Values of FDI beneath it are tagged condition met; values meeting or exceeding it are tagged condition not met.

For orientation, consider the following solved cases.
Qu. Does COc1ccc2c(c1)OC(C)(C)[C@@]1(I)CC(=O)O[C@@H]21 (racemic) have FDI strictly under 30?
Ans. condition not met

Qu. Now this one: "COc1ccc2c(c1)OC(C)(C)C1=C2OC(=O)C1"
Ans. condition met

Qu. Now this one: "COc1cc2c(cc1OC)C1=C(CC(=O)O1)C(C)(C)O2"
Ans. condition met

Qu. Now this one: COc1cc2c(cc1OC)[C@@H]1OC(=O)C[C@]1(I)C(C)(C)O2 (racemic)
Ans. condition not met

Qu. Now this one: "COc1ccc2c(c1)OC(C)(C)C(CC(=O)O)=C2"
Ans. condition met

Further cases:
Qu. Does COc1ccc2c(c1)OC(C)(C)C=C2 [PROCOCENE I] have FDI strictly under 30?
Ans. condition not met

Qu. Now this one: COc1cc2c(cc1OC)OC(C)(C)C=C2 [PROCOCENE II]
Ans. condition not met

Qu. Now this one: "COc1cc2c(cc1OC)OC(C)(C)C(CC(=O)O)=C2"
Ans. condition not met
